Test: Pharmacokinetic study with Compound 218 (IV 5 mg/kg, PO 25 mg/kg)
Type: in vivo
Details: male, beagle, dog, plasma, iv, 5 mg/kg, analyte Compound 218; IV 5 mg/kg Compound 218; fasted male beagle dogs; mean; read-out: Compound 218 PK Vss
REPORTED PROPERTY: Vd (L/kg)
Respond with the bare value in L/kg.

Q. Using the record for `CC(=O)[C@H]1CC[C@H]2[C@@H]3CC[C@H]4C[C@](C)(OC(=O)COC(=O)C(C)(C)N)CC[C@]4(C)[C@H]3CC[C@]12C` , report its Vd.
A. 11.4

====

Assay: in vitro
Assay type: in vitro ADME, human
Settings: human liver microsomes 0.5 mg/mL, with NADPH, compound 0.5 μM; read-out: Human Liver Microsomal Stability CLint (uL/min/mg liver) (converted)
Method: For several compounds only human liver microsomal stability was tested. […] The microsomal assays were carried out with and without the addition of NADPH at a final concentration of 1 mM. For negative control samples, NADPH reagent was not added. […] Note that compounds undergo only Phase I metabolism in liver microsomes.
A collection of compounds and their measured microsomal CLint
Respond with the bare value in µL/min/mg.

Q. Using the record for `CC(=O)[C@H]1CC[C@H]2[C@@H]3CC[C@H]4C[C@](C)(OC(=O)CCN5C(=O)CCC5=O)CC[C@]4(C)[C@H]3CC[C@]12C` , report its microsomal CLint.
A. 169

====

Assay: in vitro
Details: human plasma, 2 μg/mL, 37° C.
REPORTED PROPERTY: Human plasma t90 (min)
Respond with the bare value in min.

# count of solved cases: 3
CC(=O)[C@H]1CC[C@H]2[C@@H]3CC[C@H]4C[C@](C)(OC(=O)CNC(C)(C)C(=O)O)CC[C@]4(C)[C@H]3CC[C@]12C
218
CC(=O)[C@H]1CC[C@H]2[C@@H]3CC[C@H]4C[C@](C)(OC(=O)CO)CC[C@]4(C)[C@H]3CC[C@]12C
313
COc1ccccc1N1CCN(CC(=O)O[C@]2(C)CC[C@@]3(C)[C@@H](CC[C@@H]4[C@@H]3CC[C@]3(C)[C@@H](C(C)=O)CC[C@@H]43)C2)CC1
27.8

Q. Using the record for `CC(=O)[C@H]1CC[C@H]2[C@@H]3CC[C@H]4C[C@](C)(OC(=O)CN)CC[C@]4(C)[C@H]3CC[C@]12C` , report its Human plasma t90.
A. 542

Q. Same read-out for `CC(=O)[C@H]1CC[C@H]2[C@@H]3CC[C@H]4C[C@](C)(OCOC(=O)CN5CCOCC5)CC[C@]4(C)[C@H]3CC[C@]12C` ?
A. 2.54

Q. Same read-out for `CC(=O)[C@H]1CC[C@H]2[C@@H]3CC[C@H]4C[C@](C)(O)CC[C@]4(C)[C@H]3CC[C@]12C` ?
A. 211.0

====

Test: in vitro
Format: in vitro ADME, human
Settings: human liver microsomes, no NADPH, 1 h, compound 0.5 μM
REPORTED PROPERTY: Human Liver Microsomal Stability no NADPH, % remain 1 h (%)
Respond with the bare value in %.

# count of solved cases: 3
CC(=O)[C@H]1CC[C@H]2[C@@H]3CC[C@H]4C[C@](C)(OC(=O)CN5CCC[C@H]5C(=O)O)CC[C@]4(C)[C@H]3CC[C@]12C
95
CNCC(=O)O[C@]1(C)CC[C@@]2(C)[C@@H](CC[C@@H]3[C@@H]2CC[C@]2(C)[C@@H](C(C)=O)CC[C@@H]32)C1
99.5
CC(=O)[C@H]1CC[C@H]2[C@@H]3CC[C@H]4C[C@](C)(OC(=O)CCN5C(=O)CCC5=O)CC[C@]4(C)[C@H]3CC[C@]12C
99

Q. Using the record for `CC(=O)[C@H]1CC[C@H]2[C@@H]3CC[C@H]4C[C@](C)(OC(=O)CSCCOC(=O)CN5CCOCC5)CC[C@]4(C)[C@H]3CC[C@]12C` , report its Human Liver Microsomal Stability no NADPH, % remain 1 h.
A. 90

Q. Same read-out for `CC(=O)[C@H]1CC[C@H]2[C@@H]3CC[C@H]4C[C@](C)(OC(=O)CCCN)CC[C@]4(C)[C@H]3CC[C@]12C` ?
A. 99

====

Experiment: Pharmacokinetic study with Compound 111 (IV 5 mg/kg, PO 25 mg/kg)
Assay type: in vivo
Conditions: dog, plasma; analyte Compound 111; oral 25 mg/kg vs IV 5 mg/kg Compound 111; fasted male beagle dogs; mean; read-out: Compound 111 PK F (%)
REPORTED PROPERTY: bioavailability
Answers without a unit are incomplete; give the number and then its unit.

Q. Using the record for CC(=O)[C@H]1CC[C@H]2[C@@H]3CC[C@H]4C[C@](C)(OC(=O)CN)CC[C@]4(C)[C@H]3CC[C@]12C [Compound 111] , report its bioavailability.
A. 11.4%

====

Assay: Pharmacokinetic study with Compound 111 (IV 5 mg/kg, PO 25 mg/kg)
Type: in vivo
Conditions: dog, plasma; analyte Compound 111; IV 5 mg/kg Compound 111; fasted male beagle dogs; mean; read-out: Compound 111 PK t1/2 (converted)
REPORTED PROPERTY: half-life (h)
Respond with the bare value in h.

Q. Using the record for `CC(=O)[C@H]1CC[C@H]2[C@@H]3CC[C@H]4C[C@](C)(OC(=O)CN)CC[C@]4(C)[C@H]3CC[C@]12C` , report its half-life.
A. 3.54

====

Assay: Pharmacokinetic study with Compound 111 (IV 5 mg/kg, PO 25 mg/kg)
Assay type: in vivo
Conditions: dog, plasma; analyte Compound 111; oral 25 mg/kg Compound 111; fasted male beagle dogs; mean; read-out: Compound 111 PK AUCInf
REPORTED PROPERTY: AUC(0-inf) (ng·h/mL)
Respond with the bare value in ng·h/mL.

Q. Using the record for CC(=O)[C@H]1CC[C@H]2[C@@H]3CC[C@H]4C[C@](C)(OC(=O)CN)CC[C@]4(C)[C@H]3CC[C@]12C [Compound 111] , report its AUC(0-inf).
A. 1720

====

Experiment: in vitro
Format: in vitro ADME, human
Details: human liver microsomes 0.5 mg/mL, with NADPH, compound 0.5 μM; read-out: Human Liver Microsomal Stability CLint (uL/min/mg liver) (converted)
Threshold rule: microsomal CLint greater than or equal to 3 µL/min/mg is 1; below that, 0.

Q. Could you tell me if the measured microsomal CLint of CC(=O)[C@H]1CC[C@H]2[C@@H]3CC[C@H]4C[C@](C)(OC(=O)CNCC(=O)O)CC[C@]4(C)[C@H]3CC[C@]12C [Compound 124] reaches 3 µL/min/mg or more?
A. 0

Q. Same read-out for CC(=O)[C@H]1CC[C@H]2[C@@H]3CC[C@H]4C[C@](C)(OC(=O)CC(C)(C)C(=O)O)CC[C@]4(C)[C@H]3CC[C@]12C [Compound 420] ?
A. 1

Q. Same read-out for CC(=O)[C@H]1CC[C@H]2[C@@H]3CC[C@H]4C[C@](C)(OC(=O)CSC(=N)N)CC[C@]4(C)[C@H]3CC[C@]12C [Compound 304] ?
A. 1

Q. Same read-out for CC(=O)[C@H]1CC[C@H]2[C@@H]3CC[C@H]4C[C@](C)(OC(=O)COC(=O)CNC(=O)[C@H](C)N)CC[C@]4(C)[C@H]3CC[C@]12C [Compound 216] ?
A. 1

Q. Same read-out for CNC(C)(C)C(=O)OCC(=O)O[C@]1(C)CC[C@@]2(C)[C@@H](CC[C@@H]3[C@@H]2CC[C@]2(C)[C@@H](C(C)=O)CC[C@@H]32)C1 [Compound 232] ?
A. 1

====

Experiment: Stability in simulated intestinal fluid (SIF)
Type: in vitro ADME
Conditions: simulated gi fluid; SIF with pancreatin pH 6.8, 37° C., 2 μg/mL; read-out: SIF t1/2
REPORTED PROPERTY: half-life (h)
Respond with the bare value in h.

CC(=O)[C@H]1CC[C@H]2[C@@H]3CC[C@H]4C[C@](C)(OCOC(=O)CN5CCOCC5)CC[C@]4(C)[C@H]3CC[C@]12C [Compound 504]
1.47
CC(=O)[C@H]1CC[C@H]2[C@@H]3CC[C@H]4C[C@](C)(OC(=O)CNC(C)(C)C(=O)O)CC[C@]4(C)[C@H]3CC[C@]12C [Compound 120]
3.32
CC(=O)[C@H]1CC[C@H]2[C@@H]3CC[C@H]4C[C@](C)(OC(=O)COC(=O)C(C)(C)OC(=O)CN(CCO)CCO)CC[C@]4(C)[C@H]3CC[C@]12C [Compound 228]
0.533
CC(=O)[C@H]1CC[C@H]2[C@@H]3CC[C@H]4C[C@](C)(OC(=O)CO)CC[C@]4(C)[C@H]3CC[C@]12C [Compound 201]
26.4
CC(=O)[C@H]1CC[C@H]2[C@@H]3CC[C@H]4C[C@](C)(OC(=O)COC(=O)C(C)(C)N)CC[C@]4(C)[C@H]3CC[C@]12C [Compound 218]
22.7

Q. Using the record for CC(=O)[C@H]1CC[C@H]2[C@@H]3CC[C@H]4C[C@](C)(OC(=O)CN)CC[C@]4(C)[C@H]3CC[C@]12C [Compound 111] , report its half-life.
A. 4.27
